Data origin, for the record: PubChem BioAssay AID1159580

Recorded measurements of normalized growth, one per entry
- protocol-description: chemical genetic growth profiling, strain panel (AID 1159580);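 also: tested at 20 µM; growth read once vehicle control cultures reached saturation at 30 °C; 1 = growth at the plate median or of vehicle wells; lower values mean less growth of the strain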
- assay-conditions: S. cerevisiae deletion strains, growth OD, locus YGR135W, strain pre9, stronger effect = lower value
Hit rate of the full screen: of about 5,500 compounds, about 2,000 (36%) were called active. Roughly 18% stayed inconclusive and do not appear here. The list shows a part of the results.
assay-readout: normalized growth

CC(C(=O)O)c1ccc(C(=O)c2cccs2)cc1 (stereo not drawn) ... 1.01 (inactive)
C=C1C(=O)O[C@@H]2C[C@@]3(C)CCC[C@H](C)C3=C[C@H]12 ... 0.801 (active)
O=C(O)c1ccccc1-c1c2cc(Br)c(=O)cc-2oc2[c]([Hg])c(O)c(Br)cc12 ... 0.0708 (active)
O=C(Cn1ccnc1[N+](=O)[O-])NCCO ... 0.988 (inactive)
CC(C)C(C)/C=C/C(C)C1CCC2C3=CC=C4CC(O)CCC4(C)C3CCC21C (stereo not drawn) ... 0.928 (inactive)
CC(C)NCC(O)c1cc(O)cc(O)c1 (stereo not drawn) ... 0.949 (inactive)
CC[N+](CC)(CC)CCOc1cccc(OCC[N+](CC)(CC)CC)c1OCC[N+](CC)(CC)CC ... 1.03 (inactive)
C=C1C(=O)O[C@@H]2C3O[C@]3(C)CC/C=C(\C)CC[C@@H]12 (stereo partly drawn) ... 0.749 (active)
COC(=O)C(C)c1ccc(C(=O)c2cccs2)cc1 (stereo not drawn) ... 0.946 (inactive)
CO/N=C(\C(=O)NC1C(=O)N2C(C(=O)O)=C(COC(N)=O)CSC12)c1ccco1 (stereo not drawn) ... 0.0617 (active)
CO[C@@]1(NC(=O)CSCC#N)C(=O)N2C(C(=O)O)=C(CSc3nnnn3C)CSC21 (stereo partly drawn) ... 1.01 (inactive)
NC(CO)C(=O)NNCc1ccc(O)c(O)c1O (stereo not drawn) ... 0.994 (inactive)
CC(C)NC[C@H](O)COc1cccc2ccccc12 ... 1.02 (inactive)
O=C(C1CCCCC1)N1CC(=O)N2CCc3ccccc3C2C1 (stereo not drawn) ... 0.998 (inactive)
CCC(C)c1cnc(CC(C)C)c(=O)n1O (stereo not drawn) ... 0.977 (inactive)
C=CCCCCCCCCCCCC(O)CC(O)COC(C)=O (stereo not drawn) (tested in a mixture with another compound) ... 0.971 (inactive)
CO/N=C(\C(=O)N[C@@H]1C(=O)N2C(C(=O)O)=C(COC(C)=O)CS[C@H]12)c1csc(N)n1 ... 1.05 (inactive)
Oc1ccc2c(c1)OCC1c3cc4c(cc3OC21)OCO4 (stereo not drawn) ... 0.993 (inactive)

----------
- protocol-description: chemical genetic growth profiling, strain panel (AID 1159580);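 also: tested at 20 µM; growth read once vehicle control cultures reached saturation at 30 °C; 1 = growth at the plate median or of vehicle wells; lower values mean less growth of the strain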
- assay-conditions: S. cerevisiae deletion strains, growth OD, locus YLR357W, strain rsc2, stronger effect = lower value
The whole screen tested about 5,500 compounds, of which about 2,000 (36%) were called active. Roughly 18% stayed inconclusive and do not appear here. This is one part of the list.
assay-readout: normalized growth

CCCCN1CCCCC1C(=O)Nc1c(C)cccc1C (stereo unspecified) ... 0.982
OCCOCCN1CCN(C2=Nc3ccccc3Sc3ccccc32)CC1 ... 1.01
NC(N)=NS(=O)(=O)c1ccc(N)cc1 ... 0.986
CC(=O)Oc1c(C)cccc1C(=O)O ... 1.04
Cc1ccc(Cl)c(Nc2ccccc2C(=O)O)c1Cl ... 0.994
O=C1C=C2C=C[C@@H]3C[C@@]2(O1)[C@H]1CCCCN31 ... 0.986
O=C(C1CCCCC1)N1CC(=O)N2CCc3ccccc3C2C1 (stereo unspecified) ... 0.998
C[C@H]1COC2=C1C(=O)C(=O)c1c2ccc2c1CCCC2(C)C ... 0.934
NC(=O)c1cccc(N)c1 ... 0.976
CC(C)C(C)/C=C/C(C)[C@H]1CCC2C3=CCC4CC(=O)CC[C@]4(C)C3CC[C@@]21C (stereo partly specified) ... 0.978
Cc1c(Cl)cccc1Nc1ccccc1C(=O)O ... 0.93
Cc1cc(NC(=O)C2=C(O)c3ccccc3S(=O)(=O)N2C)no1 ... 0.994
Oc1ccc(Cl)cc1 ... 1.04
O=c1cc[nH]c(=S)[nH]1 ... 1.04
C=C1CCC2C(CC2(C)C)C(=O)CCC1O (stereo unspecified) ... 0.981
O=C1[C@H](CCC(O)c2ccc(F)cc2)[C@@H](c2ccc(O)cc2)N1c1ccc(F)cc1 (stereo partly specified) ... 0.978
